Recorded values, source patent US6916812B2.

Molecular target: cloned human MC4R (Homo sapiens)
Construct: made in house; host or cells: Hi5 insect cells (baculovirus infection); membrane preparation
Sequence (P32245 whole entry): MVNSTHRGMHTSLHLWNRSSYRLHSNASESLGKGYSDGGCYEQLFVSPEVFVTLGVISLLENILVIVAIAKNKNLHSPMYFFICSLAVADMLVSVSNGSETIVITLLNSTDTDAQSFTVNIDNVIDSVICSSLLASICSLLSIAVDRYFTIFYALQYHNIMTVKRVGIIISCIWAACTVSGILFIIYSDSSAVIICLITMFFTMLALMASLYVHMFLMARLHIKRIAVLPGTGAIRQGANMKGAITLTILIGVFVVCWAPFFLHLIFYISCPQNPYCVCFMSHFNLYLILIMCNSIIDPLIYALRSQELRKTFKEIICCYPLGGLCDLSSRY
Assay: Membrane binding assay: competitive inhibition of [125I]NDP-α-MSH binding
Settings: read-out: MC4R IC50
Method: Hi5 cells are infected using the following protocol: Cells at a density of 1×10^6 cells/mL are spun down at 1000 rpm (Beckman GS-6KR centrifuge) for 10 minutes. Cells are resuspended in 10% of their original volume in a sterile 50 mL conical centrifuge tube wrapped with aluminum foil. […] Protein content is determined (Bradford, Bio-Rad Protein Assay). […] Dose-response curves are fitted by […] analyses and IC50 values are calculated using ExcelFit.
endpoint-label: IC50

// solved cases for IC50 follow
>>> test_value("COc1cccc(COc2ccc(C[C@H](N)C(=O)N3CCN(Cc4cccc(Cl)c4Cl)CC3)cc2)c1 [Example 203]")
"1500 to 3000 nM"
>>> test_value("CC1CCC(N2CCCN(C(=O)[C@@H](N)Cc3ccc(OCc4ccccc4)cc3)CC2)CC1 (stereo partly drawn) [Example 74]")
"> 3000 nM"
>>> test_value("COc1ccc(CCOc2ccc(C[C@H](N)C(=O)N3CCN(Cc4cccc(Cl)c4Cl)CC3)cc2)cc1 [Example 254]")
"< 1500 nM"
>>> test_value("N[C@@H](Cc1ccc(OCc2ccccc2)cc1)C(=O)N1CCN(Cc2cccc(OCc3ccccc3)c2)CC1 [Example 85]")
"< 1500 nM"
>>> test_value("COc1ccc(CCOc2ccc(C[C@H](N)C(=O)N3CCN(Cc4cccc(Cl)c4Cl)CC3)cc2)cc1OC [Example 259]")
"> 3000 nM"
>>> test_value("N[C@@H](Cc1ccc(OCCc2cccc(Br)c2)cc1)C(=O)N1CCN(Cc2cccc(Cl)c2Cl)CC1 [Example 248]")
"< 1500 nM"
>>> test_value("N[C@@H](Cc1ccc(-c2cccc3c2sc2ccccc23)cc1)C(=O)N1CCN(Cc2cccc(Cl)c2Cl)CC1 [Example 337]")
"< 1500 nM"
>>> test_value("COc1cccc(CN2CCCN(C(=O)[C@@H](N)Cc3ccc(OCc4ccccc4)cc3)CC2)c1OC [Example 54]")
"> 3000 nM"

Assay cloned human MC4R (Homo sapiens), sample N[C@@H](Cc1ccc(-c2ccc(F)c(Cl)c2)cc1)C(=O)N1CCN(Cc2cccc(Cl)c2Cl)CC1 [Example 306] , IC50 read: < 1500 nM

Let me check: N[C@@H](Cc1ccc(OCCc2ccc(Cl)cc2)cc1)C(=O)N1CCN(Cc2cccc(Cl)c2Cl)CC1 [Example 245] , system cloned human MC4R (Homo sapiens), measured IC50 is < 1500 nM

----------
Reported IC50 is given for each of the following compounds.
Target: cloned human MC4R (Homo sapiens)
Construct: made in house; host or cells: Hi5 insect cells (baculovirus infection); membrane preparation
Assay: Membrane binding assay: competitive inhibition of [125I]NDP-α-MSH binding
Settings: read-out: MC4R IC50

>>> test_value("CN(CCCOc1ccc(C[C@H](N)C(=O)N2CCN(Cc3cccc(Cl)c3Cl)CC2)cc1)Cc1ccccc1")
"> 3 µM"
>>> test_value("N[C@@H](Cc1ccc(OCc2ccccc2)cc1)C(=O)N1CCCN(Cc2c3ccccc3cc3ccccc23)CC1")
"> 3 µM"
>>> test_value("N[C@@H](Cc1ccc(OCCc2cccc(OCc3ccccc3)c2)cc1)C(=O)N1CCN(Cc2cccc(Cl)c2Cl)CC1")
"< 1.5 µM"

Lab note: next compound to report on.
Per the records, this compound ( Cc1cccc(Oc2ccc(C[C@H](N)C(=O)N3CCN(Cc4cccc(Cl)c4Cl)CC3)cc2)c1 ) has IC50 equal to 1.5 to 3 µM
